target: human recombinant CA IV (Homo sapiens, UniProt P22748)
Construct: recombinant human carbonic anhydrase catalytic domains using the fluorescent thermal shift assay
Sequence (P22748 21-285 limits assumed): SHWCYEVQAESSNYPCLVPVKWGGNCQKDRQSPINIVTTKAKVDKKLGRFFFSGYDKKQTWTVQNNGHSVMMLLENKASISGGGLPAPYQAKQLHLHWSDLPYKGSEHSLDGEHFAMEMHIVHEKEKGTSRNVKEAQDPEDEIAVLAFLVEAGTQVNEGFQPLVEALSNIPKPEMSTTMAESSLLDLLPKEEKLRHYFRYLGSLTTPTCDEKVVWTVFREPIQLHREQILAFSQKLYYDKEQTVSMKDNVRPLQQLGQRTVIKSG
assay-info: Fluorescent thermal shift assay (FTSA), CA IV
experimental-setup: 37° C., pH 7.0
reported-endpoint: Kd (µM)

compound="NS(=O)(=O)c1c(F)c(F)c(S(=O)(=O)CCNC(=O)CCOCCOCCOCCOCCOCCOCCOCCOCCOCCOCCOCCOCCOCCC(=O)O)c(NC2CCCCCCC2)c1F [AZ19-3-1]" reported_endpoint=Kd value=1
compound="NS(=O)(=O)c1c(F)c(F)c(S(=O)(=O)CCNC(=O)CCOCCOCCOCCOCCOCCOCCOCCOCCOCCOCCOCCOCCOCCC(=O)NCCS(=O)(=O)c2c(F)c(F)c(S(N)(=O)=O)c(F)c2NC2CCCCCCC2)c(NC2CCCCCCC2)c1F [AZ19-3-2]" reported_endpoint=Kd value=0.25
compound="NS(=O)(=O)c1c(F)c(F)c(S(=O)(=O)CCNC(=O)CCOCCOCCOCCOCCOCCOCCOCCOCCOCCOCCOCCOCCNC(=O)CCCCC2SCC3NC(=O)NC32)c(NC2CCCCCCC2)c1F (stereo not drawn) [AZ19-1]" reported_endpoint=Kd value=1
